B1: CPEB3 Ribozyme (parent)
chain: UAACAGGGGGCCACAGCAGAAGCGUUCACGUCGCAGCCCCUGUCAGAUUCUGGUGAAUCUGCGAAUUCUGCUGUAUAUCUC

Variants of: B1
Assay: self-cleavage, relative activity (ratio to wild type); higher = more cleavage; in vitro, sequencing
self-cleavage vs 0.4: at or above is MET, below is NOT MET.

// known answers, use as guide
sequence_chain="UAACAGGGGGCCACUGCAGAAGCGUUCACGUGGCAGCCCCUGUCAGAUUCUGGUGAAUCUGCGAAUUCUGCUGUAUAUCUC [A15U C32G]" label_value="NOT MET"
sequence_chain="UAACAGGGGGACACAGCAGAAGCGUUCACGUCGCAGCCCCUGUCAGAGUCUGGUGAAUCUGCGAAUUCUGCUGUAUAUCUC [C11A U48G]" label_value="NOT MET"
sequence_chain="UGACAGGGAGCCACAGCAGAAGCGUUCACGUCGCAGCCCCUGUCAGAUUCUGGUGAAUCUGCGAAUUCUGCUGUAUAUCUC [A2G G9A]" label_value="NOT MET"
sequence_chain="UAACAGGGGGCCACAGCAGAAGCGUUCACGUCGCAGGCCCUGUCAGAUUCUGGUGAAUCUGCGAAUUCUGCUGUAUACCUC [C37G U78C]" label_value=MET
sequence_chain="UAACAGGGGGGCACAGCAGAGGCGUUCACGUCGCAGCCCCUGUCAGAUUCUGGUGAAUCUGCGAAUUCUGCUGUAUAUCUC [C11G A21G]" label_value="NOT MET"

# next variant below
Q. Reported self-cleavage at or above 0.4? UAACAGGGGGCCACAGCAGAAGCGUUCACGUCGCGGCCCCUGUCAGAUUCUGGUGAAUCUGCGCAUUCUGCUGUAUAUCUC [A35G A64C]
A. MET
